Answer each item with its documented residual activity.
molecular target: ACVRL1 (human); assay: radiometric filter-binding kinase assay, Kinase HotSpot; conditions: compound 0.5 µM; ATP 10 µM
Could you give me the number in %? Just the number is fine.

Which measured residual activity value corresponds to N#C/C(=C1/Nc2ccccc2S1)c1ccnc(NCCc2cccnc2)n1 ?
102

Field request: residual activity | item: O=S(=O)(NCCNC/C=C/c1ccc(Br)cc1)c1cccc2cnccc12
119

Report residual activity for O=C(O)c1ccc2c3c1cccc3c(=O)n1c3ccccc3nc21 please.
103

Fill blank: measured residual activity of the compound N/C(=N\N=C/c1ccc(-c2cccc([N+](=O)[O-])c2)o1)N[N+](=O)[O-] is ____.
106

Entry CCc1nc(-c2ccc(OC)cc2)[nH]c1-c1ccncc1 : reported residual activity = ?
101

Record request: residual activity value, item c1ccc(-c2cnc(Nc3ccc(OCCN4CCCC4)cc3)s2)cc1
108

---

molecular target: NEK2 (human); assay: radiometric filter-binding kinase assay, Kinase HotSpot; settings: compound 0.5 µM; ATP 10 µM
Would you kindly list residual activity for each of these molecules?

If you can, please state the reported residual activity value of N#C/C(=C1/Nc2ccccc2S1)c1ccnc(NCCc2cccnc2)n1 .
87.8%

Give its residual activity value. Item: Cc1cc(Nc2nc(-c3ccccc3)nc3ccccc23)n[nH]1
99.3%

What measured residual activity goes with CCOc1cc2ncnc(Nc3cccc(Br)c3)c2cc1OCC ?
98.7%

// returns reported residual activity for input O=c1c(-c2ccc(F)cc2)c(-c2ccncc2)[nH]n1-c1ccc(Cl)cc1
85.4%

May I ask what residual activity has been recorded for O=C1NC(=O)c2cc(Nc3ccc(F)cc3)c(Nc3ccc(F)cc3)cc21 ?
96.3%

Suppose we examine the molecule CCc1nc(-c2ccc(OC)cc2)[nH]c1-c1ccncc1 ; what residual activity value has been reported?
100%

---

Can you tell me residual activity for the items I'm about to list?
target: MYLK2 (human); test: radiometric filter-binding kinase assay, Kinase HotSpot; settings: compound 0.5 µM; ATP 10 µM
The response must be a number in % with no trailing unit.

Suppose we examine the compound O=C1NC(=O)c2c1c1c3ccccc3[nH]c1c1[nH]c3cc(Br)ccc3c21 ; what residual activity value has been reported?
43.3

What value of measured residual activity is listed for N/C(=N\N=C/c1ccc(-c2cccc([N+](=O)[O-])c2)o1)N[N+](=O)[O-] ?
100

Consider the compound shown here: N#C/C(=C1/Nc2ccccc2S1)c1ccnc(NCCc2cccnc2)n1 What is its recorded residual activity?
92.8

Which residual activity value belongs to COc1cc2c(N3CCN(C(=O)Nc4ccc(OC(C)C)cc4)CC3)ncnc2cc1OCCCN1CCCCC1 ?
101

Form field: reported residual activity of COc1cccc(-c2cc(=O)c3ccccc3o2)c1N
101

For the compound shown here, CCOc1cc2ncnc(Nc3cccc(Br)c3)c2cc1OCC , give the reported residual activity.
93.5

Bench note: what residual activity did N#CCCc1ccc2c(c1)-c1[nH]c3ccc([N+](=O)[O-])cc3c1CC(=O)N2 show?
93.9

Reported residual activity, compound O=C(c1ccccc1)c1ccc(N2CCOCC2)cc1O : ____
99.1

Reported residual activity for Cc1cc(Nc2nc(-c3ccccc3)nc3ccccc23)n[nH]1 : what is it?
62.8

Please report the recorded residual activity for O=C1NC(=O)c2cc(Nc3ccc(F)cc3)c(Nc3ccc(F)cc3)cc21 .
98.7
